Target: Progesterone receptor (Homo sapiens)
Sequence (P06401 whole entry): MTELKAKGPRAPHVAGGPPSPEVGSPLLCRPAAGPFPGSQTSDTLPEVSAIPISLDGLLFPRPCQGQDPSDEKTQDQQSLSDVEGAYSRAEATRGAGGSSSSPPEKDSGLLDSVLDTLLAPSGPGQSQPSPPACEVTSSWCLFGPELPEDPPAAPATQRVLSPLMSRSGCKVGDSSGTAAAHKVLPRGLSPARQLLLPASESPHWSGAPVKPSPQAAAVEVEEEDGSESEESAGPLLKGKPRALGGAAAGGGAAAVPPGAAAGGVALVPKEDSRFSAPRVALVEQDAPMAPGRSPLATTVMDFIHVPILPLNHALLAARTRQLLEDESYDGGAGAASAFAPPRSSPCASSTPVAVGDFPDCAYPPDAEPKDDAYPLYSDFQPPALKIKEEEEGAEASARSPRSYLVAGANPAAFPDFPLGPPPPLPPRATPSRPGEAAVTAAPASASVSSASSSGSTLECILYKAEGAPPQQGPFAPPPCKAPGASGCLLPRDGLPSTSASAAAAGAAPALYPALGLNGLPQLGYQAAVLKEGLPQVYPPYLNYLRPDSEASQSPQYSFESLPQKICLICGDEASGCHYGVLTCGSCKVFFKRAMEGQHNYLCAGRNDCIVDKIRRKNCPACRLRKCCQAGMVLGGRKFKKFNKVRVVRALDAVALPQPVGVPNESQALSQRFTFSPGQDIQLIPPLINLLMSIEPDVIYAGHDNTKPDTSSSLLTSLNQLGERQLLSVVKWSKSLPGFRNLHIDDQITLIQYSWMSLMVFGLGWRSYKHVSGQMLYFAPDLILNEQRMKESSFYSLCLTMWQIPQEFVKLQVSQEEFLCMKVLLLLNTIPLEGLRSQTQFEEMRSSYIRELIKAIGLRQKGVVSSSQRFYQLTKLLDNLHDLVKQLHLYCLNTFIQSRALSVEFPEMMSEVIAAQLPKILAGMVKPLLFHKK
pKi: −log10 of the molar value.
quantity kind: pKi

{"columns": ["structure smiles", "number"],
 "data": [
  ["N#Cc1ccc(C2=NN(S(=O)(=O)c3ccc(Br)s3)CCCC2)cc1", 7.20]
]}

(P) O=S(=O)(c1ccc(Cl)s1)N1CCCCC(c2ccccc2Cl)=N1
(Q) O=[N+]([O-])c1ccc(C2=NN(S(=O)(=O)c3ccc(OC(F)(F)F)cc3)CCCC2)cc1
Inquiry: Which one would you say has the larger pKi value: P , or Q ? The response must carry the label of the picked entry.
Reply text: Q
(Q: 7.30, P: 6.70)

----------
Biological target: Progesterone receptor (Homo sapiens)
Experiment: Antagonist activity against PR beta-mediated transactivation of MMTV luciferase reporter gene in BacMam transduced progesterone-stimulated CV1 cells
pIC50: −log10 of the molar value.
quantity kind: pIC50

Completed entries (count: 5):
{"columns": ["structure smiles", "pIC50"],
 "data": [
  ["O=S(=O)(c1ccc(Cl)cc1)N1CCCCC(c2cccc(F)c2)=N1", 6.30],
  ["O=S(=O)(c1cccc(Cl)c1)N1CCCCC(c2ccc(Cl)cc2)=N1", 5.90],
  ["Cc1c(Cl)cccc1S(=O)(=O)N1CCCCC(c2cccc(Cl)c2)=N1", 5.70],
  ["O=S(=O)(c1ccc(Cl)s1)N1CCCCC(c2ccccc2Cl)=N1", 6.20],
  ["O=S(=O)(c1ccc(Br)s1)N1CCCCC(c2ccc(Cl)c(Cl)c2)=N1", 6.50]
]}

(A) O=S(=O)(c1ccc(Br)s1)N1CCCCC(c2cccc(Br)c2)=N1
(B) O=[N+]([O-])c1ccc(C2=NN(S(=O)(=O)c3ccc(OC(F)(F)F)cc3)CCCC2)cc1
Inquiry: Which one would you say has the larger pIC50 value: A , or B ? The response must carry the label of the picked entry.
Reply text: B
(B: 6.80, A: 6.60)

(1) O=S(=O)(c1ccc(Cl)cc1Cl)N1CCCCC(c2ccc(Cl)c(Cl)c2)=N1
(2) N#Cc1ccc(C2=NN(S(=O)(=O)c3ccccc3F)CCCC2)cc1
Inquiry: // which entry reports the smaller pIC50, 1 or 2 ? The response must carry the label of the picked entry.
Reply text: 2
